Test Target: APAO (N1-acetylpolyamine oxidase) (Homo sapiens, UniProt Q6QHF9)
Sequence (Q6QHF9 whole entry): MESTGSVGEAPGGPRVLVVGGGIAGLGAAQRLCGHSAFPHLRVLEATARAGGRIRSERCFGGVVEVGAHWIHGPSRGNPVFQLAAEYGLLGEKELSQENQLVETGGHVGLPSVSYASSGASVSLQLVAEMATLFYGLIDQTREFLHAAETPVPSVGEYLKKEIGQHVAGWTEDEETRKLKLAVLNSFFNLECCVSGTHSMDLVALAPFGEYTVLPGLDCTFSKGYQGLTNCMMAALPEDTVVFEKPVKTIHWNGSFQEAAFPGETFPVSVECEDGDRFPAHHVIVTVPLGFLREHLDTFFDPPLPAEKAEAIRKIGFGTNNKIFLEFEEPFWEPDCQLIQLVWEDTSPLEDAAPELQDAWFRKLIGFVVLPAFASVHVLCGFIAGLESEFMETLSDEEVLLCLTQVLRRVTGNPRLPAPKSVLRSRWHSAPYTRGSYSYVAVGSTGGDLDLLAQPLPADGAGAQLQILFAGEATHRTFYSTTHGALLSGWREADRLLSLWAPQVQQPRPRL
Assay Remarks: luminol/HRP chemiluminescence assay of H2O2 with purified recombinant enzyme
Recorded Metric: IC50 (µM)
Write the number in µM without appending the unit.

Task item: Look up IC50 with APAO (N1-acetylpolyamine oxidase) (Homo sapiens, UniProt Q6QHF9) for this molecule: CN(C)CCCNCCCNC(=O)c1cccc2cccnc12 [SI-4650]
Reply: 35.4
